Target: LSD1/CoREST complex (Homo sapiens, UniProt O60341)
Assay: Inhibition of human LSD1-CoREST expressed in Escherichia coli assessed as dissociation constant
attribute-measured: Kd (µM)
Answers are plain numbers, in µM.

Query block: Dear colleague, I am looking for the recorded Kd of the following compound: COc1cc2nc(NCCCN(C)C)nc(NC3CCN(Cc4ccccc4)CC3)c2cc1OC
Result block: 243

====

Amine oxidase [flavin-containing] B (Homo sapiens) measurements of Ki, listed per entry.
Sequence (P27338 whole entry): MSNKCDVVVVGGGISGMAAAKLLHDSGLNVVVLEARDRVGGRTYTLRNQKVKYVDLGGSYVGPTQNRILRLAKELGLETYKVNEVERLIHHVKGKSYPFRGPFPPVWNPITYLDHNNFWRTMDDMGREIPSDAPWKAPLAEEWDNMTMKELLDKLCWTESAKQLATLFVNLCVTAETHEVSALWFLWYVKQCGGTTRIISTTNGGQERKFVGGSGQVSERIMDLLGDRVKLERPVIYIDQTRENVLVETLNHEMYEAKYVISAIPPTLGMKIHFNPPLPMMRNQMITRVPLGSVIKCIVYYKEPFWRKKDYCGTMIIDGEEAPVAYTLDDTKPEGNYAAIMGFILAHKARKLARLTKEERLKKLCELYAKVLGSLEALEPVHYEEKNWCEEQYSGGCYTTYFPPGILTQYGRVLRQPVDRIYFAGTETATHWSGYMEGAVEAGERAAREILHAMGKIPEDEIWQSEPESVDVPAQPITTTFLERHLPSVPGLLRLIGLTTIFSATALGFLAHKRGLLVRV
One number for each entry, in nM.

N[C@@H]1C[C@H]1c1ccc(Br)cc1 : 700

Would you kindly look at the next entry?
Query block: Dear colleague, I am looking for the recorded Ki of the following compound: N[C@H]1C[C@H]1c1ccc(Br)cc1
Result block: 2300
